Tested on: Staphylococcus aureus
Test: Antimicrobial activity against methicillin-susceptible Staphylococcus aureus infected iv dosed mouse assessed as survival rate after 1 hr of infection
Format: functional
// returns rule not met unless ED50 is strictly below 2 mg/kg, in which case rule met

Worked examples follow.
{"molecule": "C=C[C@]1(C)C[C@@H](OC(=O)CN2CCN(C(=O)CCn3cnc4c(N5CCC(N)CC5)ncnc43)[C@@H](C)C2)[C@]2(C)[C@H](C)CC[C@]3(CCC(=O)[C@@H]32)[C@@H](C)[C@@H]1O.Cl.Cl", "group": "rule met"}
{"molecule": "C=C[C@]1(C)C[C@@H](OC(=O)CN2CCN(C(=O)CCn3cnc4c(N5CC[C@H](N)C5)ncnc43)[C@@H](C)C2)[C@]2(C)[C@H](C)CC[C@]3(CCC(=O)[C@@H]32)[C@@H](C)[C@@H]1O.Cl.Cl", "group": "rule met"}
{"molecule": "C=C[C@]1(C)C[C@@H](OC(=O)CN2CC(C)N(C(=O)CCn3cnc4c(N5CCC(N)C5)ncnc43)CC2C)[C@]2(C)[C@H](C)CC[C@]3(CCC(=O)[C@@H]32)[C@@H](C)[C@@H]1O.Cl.Cl (stereo not given in full)", "group": "rule not met"}
{"molecule": "C=C[C@]1(C)C[C@@H](OC(=O)CN2CCN(C(=O)CCn3cnc4c(N5CCC(N)C5)ncnc43)[C@@H](C)C2)[C@]2(C)[C@H](C)CC[C@]3(CCC(=O)[C@@H]32)[C@@H](C)[C@@H]1O.Cl.Cl (stereo not given in full)", "group": "rule met"}

Would you kindly verify if ED50 of C=C[C@]1(C)C[C@@H](OC(=O)CN2CCN(C(=O)CCn3cnc4c(N5CCC(N(C)C)C5)ncnc43)CC2)[C@]2(C)[C@H](C)CC[C@]3(CCC(=O)[C@@H]32)[C@@H](C)[C@@H]1O.Cl.Cl (stereo not given in full) is strictly less than 2 mg/kg?
rule not met

FYI, the data here is from ChEMBL document CHEMBL1139278.
